Listed below: IC50 values for each entry.
- SYSTEM: T1, wild type monomeric full-length HIV-1 YU-2 gp120 (HIV-1 YU-2, UniProt P35961 32-498)
- T1 construct: domain: gp120; also called gp120YU-2; gp120 YU-2
- ASSAY_TEXT: SPR competition: gp120 YU-2 with increasing peptide over immobilised soluble CD4; competitor CD4
Bridges are numbered along the chain shown (N, C = ends). Where no end group is shown, it is not given here. [ ]: non-standard residue; d: D form. triazolo‑Pro(2,4-diMe-benzyl) = triazolo-proline with ortho- and para-methyl phenyl methyl on the triazole; triazolo‑Pro(3,4-diMe-benzyl) = triazolo-proline with para- and meta-methyl phenyl methyl on the triazole; triazolo‑Pro(3-Me-benzyl) = triazolo-proline with meta-methyl phenyl methyl on the triazole; triazolo‑Pro(4-Me-benzyl) = triazolo-proline with para-methyl phenyl methyl on the triazole
Supply the numeric figure in nM, leaving out any unit text.

// solved cases for IC50 follow
DNI[triazolo‑Pro(4-Me-benzyl)]WK-NH2 (lactam 1-6) [cPT 24] : 80
DNI[triazolo‑Pro(3-Me-benzyl)]WK-NH2 (lactam 1-6) [cPT 26] : 234
DNI[triazolo‑Pro(4-iPr-phenyl)]WK-NH2 (lactam 1-6) [cPT 21] : 1200
DNI[triazolo‑Pro(2,4-diMe-benzyl)]WK-NH2 (lactam 1-6) [cPT 27] : 130

Next:
IC50 for DNI[triazolo‑Pro(3,4-diMe-benzyl)]WK-NH2 (lactam 1-6) [cPT 29] is 2800

Sourced from patent US20220204565A1
